- protocol_description: Selectivity index, ratio of CC50 for cytotoxicity against human MT-4 cells to EC50 for inhibition of HIV-1 p66/51 reverse transcriptase E138K mutant
- Type: toxicity, cell-based
- experimental_parameters: read-out: Ratio CC50/EC50
readout_kind: selectivity ratio

> print(dat)
                            compound.smiles  value.prefix  endpoint.value
1  CC(=O)N(c1ccnc(Nc2ccc(C#N)cc2)n1)c1c(F)cc(-c2ccc(C#N)cc2)cc1F             >           29100
2  C=CCN(c1ccnc(Nc2ccc(C#N)cc2)n1)c1c(F)cc(-c2ccc(C#N)cc2)cc1F             =            5920
3  N#CCN(c1ccnc(Nc2ccc(C#N)cc2)n1)c1c(F)cc(-c2ccc(C#N)cc2)cc1F             =            9960
4  COCN(c1ccnc(Nc2ccc(C#N)cc2)n1)c1c(F)cc(-c2ccc(C#N)cc2)cc1F             =            6780
5  N#Cc1ccc(Nc2nccc(N(CCF)c3c(F)cc(-c4ccc(C#N)cc4)cc3F)n2)cc1             =            8200

###

Each entry below carries its recorded EC50.
- protocol_description: Inhibition of HIV-1 p66/p51 reverse transcriptase E138K mutant incubated for 40 mins by picogreen dye-based spectrofluorometric analysis
- Design: species or system Human immunodeficiency virus 1
readout_kind: EC50

> print(dat)
                                   compound  endpoint.value
1  N#CCN(c1ccnc(Nc2ccc(C#N)cc2)n1)c1c(F)cc(-c2ccc(C#N)cc2)cc1F         20.7 nM
2  Cc1cnc(Nc2ccc(C#N)cc2)nc1Nc1c(F)cc(-c2ccc(C#N)cc2)cc1F          8.3 nM
3  Cc1ccnc2c1NC(=O)c1cccnc1N2C1CC1 [NEVIRAPINE]          288 nM
4  N#Cc1ccc(Nc2nccc(N(CCO)c3c(F)cc(-c4ccc(C#N)cc4)cc3F)n2)cc1          7.6 nM

###

- test_target: Human immunodeficiency virus type 1 reverse transcriptase (Human immunodeficiency virus 1, UniProt Q72547, L100I)
- protocol_description: Inhibition of HIV-1 p66/p51 reverse transcriptase L100I mutant incubated for 40 mins by picogreen dye-based spectrofluorometric analysis
pEC50: −log10 of the molar value.
readout_kind: pEC50

> print(dat)
                            compound.smiles  endpoint.value
1  N#Cc1ccc(Nc2nccc(N(CCF)c3c(F)cc(-c4ccc(C#N)cc4)cc3F)n2)cc1            7.07
2  CN(c1ccnc(Nc2ccc(C#N)cc2)n1)c1c(F)cc(-c2ccc(C#N)cc2)cc1F            7.77
3  CCN(c1ccnc(Nc2ccc(C#N)cc2)n1)c1c(F)cc(-c2ccc(C#N)cc2)cc1F            7.70

###

Reported selectivity ratio values for a set of molecules
- protocol_description: Selectivity index, ratio of CC50 for cytotoxicity against human MT-4 cells to EC50 for inhibition of HIV-1 p66/51 reverse transcriptase L100I mutant
- Type: toxicity, cell-based
- experimental_parameters: read-out: Ratio CC50/EC50
readout_kind: selectivity ratio

> print(dat)
                            compound.smiles       readout.kind  value.prefix  endpoint.value
1  CN(c1ccnc(Nc2ccc(C#N)cc2)n1)c1c(F)cc(-c2ccc(C#N)cc2)cc1F  selectivity ratio             =            8550
2  N#Cc1ccc(Nc2nccc(N(CCCO)c3c(F)cc(-c4ccc(C#N)cc4)cc3F)n2)cc1  selectivity ratio             =            1670
3  N#CCN(c1ccnc(Nc2ccc(C#N)cc2)n1)c1c(F)cc(-c2ccc(C#N)cc2)cc1F  selectivity ratio             =            4320
4  N#Cc1ccc(Nc2nccc(N(CCO)c3c(F)cc(-c4ccc(C#N)cc4)cc3F)n2)cc1  selectivity ratio             =             293
5  Cc1cnc(Nc2ccc(C#N)cc2)nc1Nc1c(F)cc(-c2ccc(C#N)cc2)cc1F  selectivity ratio             >           17500
6  COCN(c1ccnc(Nc2ccc(C#N)cc2)n1)c1c(F)cc(-c2ccc(C#N)cc2)cc1F  selectivity ratio             =            6510
7  CCN(c1ccnc(Nc2ccc(C#N)cc2)n1)c1c(F)cc(-c2ccc(C#N)cc2)cc1F  selectivity ratio             =            5190
